Provenance of the data: the NIST ThermoML archive (doi:10.1016/j.fluid.2018.09.024)

Experiment: activity coefficient (dimensionless); of the first substance listed, at infinite dilution; xn = mol fraction of the nth substance listed
Conditions: 318.15 K; 101.33 kPa; Liquid; Chromatography; x1 = 0
Recorded Metric: activity coefficient
Simply state the number, no unit and no words.

These solved cases illustrate the format of a correct answer.
> print(dat)
                                   molecule  result.value
1  C=Cc1ccccc1 [styrene] + CCCCCCCCCCCC[N+](C)(C)CCOc1ccccc1.O=S(=O)([N-]S(=O)(=O)C(F)(F)F)C(F)(F)F         0.632
2  C=CCCCCC [1-heptene] + CCCCCCCCCCCC[N+](C)(C)CCOc1ccccc1.O=S(=O)([N-]S(=O)(=O)C(F)(F)F)C(F)(F)F           2.5

CCc1ccccc1 [ethylbenzene] + CCCCCCCCCCCC[N+](C)(C)CCOc1ccccc1.O=S(=O)([N-]S(=O)(=O)C(F)(F)F)C(F)(F)F has a reported activity coefficient of 0.9

CCCCO [butan-1-ol] + CCCCCCCCCCCC[N+](C)(C)CCOc1ccccc1.O=S(=O)([N-]S(=O)(=O)C(F)(F)F)C(F)(F)F has a reported activity coefficient of 1.38

CCO [ethanol] + CCCCCCCCCCCC[N+](C)(C)CCOc1ccccc1.O=S(=O)([N-]S(=O)(=O)C(F)(F)F)C(F)(F)F has a reported activity coefficient of 1.24

CCCC(=O)OC [methyl butanoate] + CCCCCCCCCCCC[N+](C)(C)CCOc1ccccc1.O=S(=O)([N-]S(=O)(=O)C(F)(F)F)C(F)(F)F has a reported activity coefficient of 0.565

C1CCCCCC1 [cycloheptane] + CCCCCCCCCCCC[N+](C)(C)CCOc1ccccc1.O=S(=O)([N-]S(=O)(=O)C(F)(F)F)C(F)(F)F has a reported activity coefficient of 2.26

CC(C)=O [acetone] + CCCCCCCCCCCC[N+](C)(C)CCOc1ccccc1.O=S(=O)([N-]S(=O)(=O)C(F)(F)F)C(F)(F)F has a reported activity coefficient of 0.331

COC(C)(C)C [2-methoxy-2-methylpropane] + CCCCCCCCCCCC[N+](C)(C)CCOc1ccccc1.O=S(=O)([N-]S(=O)(=O)C(F)(F)F)C(F)(F)F has a reported activity coefficient of 1.03

CC(C)CO [2-methyl-1-propanol] + CCCCCCCCCCCC[N+](C)(C)CCOc1ccccc1.O=S(=O)([N-]S(=O)(=O)C(F)(F)F)C(F)(F)F has a reported activity coefficient of 1.4

Cc1cccc(C)c1 [1,3-dimethylbenzene] + CCCCCCCCCCCC[N+](C)(C)CCOc1ccccc1.O=S(=O)([N-]S(=O)(=O)C(F)(F)F)C(F)(F)F has a reported activity coefficient of 0.847

C#CCCCCCC [1-octyne] + CCCCCCCCCCCC[N+](C)(C)CCOc1ccccc1.O=S(=O)([N-]S(=O)(=O)C(F)(F)F)C(F)(F)F has a reported activity coefficient of 1.69

CCC(C)O (stereo not drawn) [butan-2-ol] + CCCCCCCCCCCC[N+](C)(C)CCOc1ccccc1.O=S(=O)([N-]S(=O)(=O)C(F)(F)F)C(F)(F)F has a reported activity coefficient of 1.23
